Experiment: Human HepG2 cell viability assay in 384 well format
Type: toxicity, cell-based
Design: dose 125 nL, time 70.5 hour; concentration not given beside the values
Details: HepG2 cells, read-out: Inhibition
Parameter measured: cytotoxicity at 70.5 h (%)
Answer format: numeric, % implied, no suffix.

Record excerpt, results attached:
CCOc1nc2cnccc2n(CC(=O)NCCc2ccccc2)c1=O ... 28.7
Cc1cc(C(=O)O)cc(S(=O)(=O)Nc2ccc3c(c2)OCCCO3)c1C ... -5.74
CC(C)c1nc(CN2CCN(C(=O)OC(C)(C)C)C(C)C2)no1 (centres undefined) ... -2.12

Quick note, cytotoxicity at 70.5 h for Cc1c2ncn(CC(=O)c3ccccc3)c(=O)c2nn1C landed at -3.76
